What melting point was measured for each of the following?

Look up and state reported melting point for CC12CC(N3CCC4(CC3)OCCO4)C(O)CC1CCC1C2CCC2(C)C(O)C(N3CCCC3)CC12 (stereo not given)
184 to 187 °C

Look up and state reported melting point for CC(C)(C)OC(=O)N1CC(CCl)c2c1cc([N+](=O)[O-])c1ccccc21 (stereo not given)
168 to 169 °C

Look up and state reported melting point for O=C(Cc1ccccc1)c1cccnc1
61 to 62 °C

Look up and state reported melting point for Nc1ccc(C(=O)N2CCCCc3sccc32)cc1
168 to 172 °C

Look up and state reported melting point for CCc1nc2cc(C(F)(F)F)c(Cl)cc2n1-c1ccc(CCOC(=O)NS(=O)(=O)c2cccc3c(N(C)C)cccc23)cc1
203 °C

Look up and state reported melting point for Cc1cccc(CCC(CO)n2cnc(C(N)=O)c2)c1 (stereo not given)
116 to 118 °C

Look up and state reported melting point for CCOP(=O)(OCC)Oc1cc(C(C)C)c(NC(=O)CN2CCN(CCSc3nc4ccccc4o3)CC2)c(C(C)C)c1
108 to 109 °C

Look up and state reported melting point for CCC(CC)(OC)c1ccc(Cl)c2nc3n(c12)CCCN3c1ccc(Cl)cc1C(F)(F)F
172 to 173 °C

Look up and state reported melting point for NC(=O)c1ccc(F)c2c1C=C([N+](=O)[O-])CO2
225 to 227 °C

Look up and state reported melting point for COc1ccc2c(c1)OCCC(C(=O)O)=C2
197 to 200 °C

Look up and state reported melting point for CC(C)Cn1c(=O)n(C)c(=O)c2cc(C(=O)c3cccc4ccccc34)sc21
150 °C

Look up and state reported melting point for c1csc(-c2ccc(-c3cn([C@H]4CN5CCC4CC5)nn3)cc2)c1
214 °C

Look up and state reported melting point for Cc1nc2cc3c(cc2o1)C1(CO3)C(=O)N(C(c2ccccc2)c2ccccc2)c2ccccc21 (stereo not given)
240 to 242 °C

Look up and state reported melting point for CN1C(=O)CCN(c2ccc(C(F)(F)F)cc2)C1=O
115 to 117 °C

Look up and state reported melting point for CCCS(=O)(=O)Nc1ccc2c(c1)S(=O)(=O)C=C(c1c(O)c3cc(F)ccc3n(CCC3CC3)c1=O)N2
145 to 150 °C

Look up and state reported melting point for O=C(c1ccccc1)n1c(=O)n(C2CCN(CCCN3c4cccc5cccc(c45)S3(=O)=O)CC2)c2ccccc21
133 °C

Look up and state reported melting point for CCOC(=O)CNC(=O)N(N(CCCl)S(C)(=O)=O)S(C)(=O)=O
121 to 122 °C

Look up and state reported melting point for O=C(Oc1ccccc1)Oc1ccccc1C(=O)NC(Oc1ccccc1)C(Cl)(Cl)Cl (stereo not given)
110 to 111 °C

Look up and state reported melting point for Cn1c([N+](=O)[O-])cnc1-c1nnc2ccc(N=CNC3CCCCC3)nn12
198 to 200 °C

Look up and state reported melting point for CC1(C)CCC(C)(C)c2cc(CCCC(=O)O)ccc21
99 °C

====

What melting point was measured for each of the following?

Look up and state reported melting point for COc1cc(COc2nn(-c3ccccc3)cc2/C=C/C(=O)O)ccc1OCc1nc(-c2ccccc2)oc1C
188 to 189 °C

Look up and state reported melting point for CC(C)(C)OC(=O)N1CCC(C(=O)c2nc3ccccc3[nH]2)CC1
226 to 228 °C

Look up and state reported melting point for CCCCc1nc(Cl)c(C(=O)O)n1Cc1ccc2oc(-c3ccccc3C(=O)OCC)c(Br)c2c1
148 to 150 °C

Look up and state reported melting point for COC(=O)C(Cc1ccccc1)Oc1ccc2cc(CNC(=O)c3ccc(C4CCCCC4)cc3)ccc2c1Br (stereo not drawn)
160 to 161 °C

Look up and state reported melting point for CCOC(=O)C(Oc1cc(N)c(Cl)cc1C(=O)NCCN(CC)CC)c1ccccc1 (stereo not drawn)
84 to 87 °C

Look up and state reported melting point for N#Cc1c(C(F)(F)C(F)(F)F)nn(-c2c(Cl)cc(C(F)(F)F)cc2Cl)c1N
160 to 162 °C

Look up and state reported melting point for O=C(O)C(Cc1ccc(O)cc1)NC(=O)C(CS)C(F)(F)F (stereo not drawn)
184 to 187 °C

Look up and state reported melting point for C#CC1(OC(C)=O)C(COC(=O)c2ccc(Cl)cc2)OC(n2ccc(=O)[nH]c2=O)C1OC(C)=O (stereo not drawn)
218 to 219 °C

Look up and state reported melting point for CCCCCCc1cc(C(=O)O)c(C)o1
59 to 60 °C

Look up and state reported melting point for CN1CCC(=C2c3cc(CO)n(C)c3CCn3ccnc32)CC1
214 °C

Look up and state reported melting point for CC(=O)SCCc1ccc(C=O)cc1
35 °C

Look up and state reported melting point for CSc1nn2c(-n3ccnc3)cc(C)nc2c1S(=O)(=O)c1ccccc1
> 230 °C

Look up and state reported melting point for CCCN(CCC)c1c([N+](=O)[O-])cc(C(C)=O)cc1[N+](=O)[O-]
71 to 72 °C

Look up and state reported melting point for CC(=O)OCC1OC(SCC#N)C(OC(C)=O)C(OC(C)=O)C1OC(C)=O (stereo not drawn)
97 °C

Look up and state reported melting point for CC(O)Cn1cnc2c1c(=O)n(CC1CCCC1)c(=O)n2CC1CCCC1 (stereo not drawn)
139 °C

Look up and state reported melting point for COc1ccc(S(=O)(=O)N2C(=O)[C@@](c3ccccc3OC)(N3C[C@H](OC(=O)CCC(=O)O)C[C@H]3C(=O)N(C)C)c3cc(Cl)ccc32)c(OC)c1
225 to 228 °C

Look up and state reported melting point for OCc1cc2cc(-c3ccccc3)ccc2[nH]1
115 to 116 °C

Look up and state reported melting point for Nc1ccccc1C(=O)Nc1nnn[nH]1
253 to 254 °C

====

What melting point was measured for each of the following?

Look up and state reported melting point for Cc1oc2c(C)c(C)c(N3C(=O)c4ccccc4C3=O)c(C)c2c1-c1ccc(C(C)C)cc1
232 to 234 °C

Look up and state reported melting point for O=C(O)c1cc(Cl)nn1-c1ncccc1Cl
198 to 199 °C

Look up and state reported melting point for COc1ccc(-c2cnc3ncnn3c2NC2CCCC2)cc1
127 °C

Look up and state reported melting point for COCCC(=O)OC1(C(=O)COC(C)=O)CCC2C3CC(C)C4=CC(=O)C=CC4(C)C3C(O)CC21C (stereo not drawn)
162 °C

Look up and state reported melting point for O=C(CCc1cnoc1-c1ccccc1)Nc1ccc(-n2ccnc2)cc1
176 to 177 °C

Look up and state reported melting point for Cn1cc(-c2ccccc2)nc1CO
191 to 192 °C

Look up and state reported melting point for CCCCOC(=O)CCCCCCCCCCCOCC(O)CNCCO (stereo not drawn)
48.6 to 50.2 °C

Look up and state reported melting point for CCOC(=O)c1c(C(F)(F)F)nc(C(F)(F)F)c(C(=O)OCC)c1OC
46.5 to 47.5 °C

Look up and state reported melting point for CNC(=O)N1N=C(c2ccc(N)cc2)c2ccc(Cl)cc2CC1C (stereo not drawn)
134 to 136 °C

Look up and state reported melting point for COC(=O)Cc1ccccc1OCc1ccc(OCCc2nc(-c3ccccc3)oc2C)nc1
78 to 79 °C

Look up and state reported melting point for CNC1([C@@H]2CCN(c3c(F)cc4c(=O)c(C(=O)O)cn([C@@H]5C[C@@H]5F)c4c3C)C2)CC1
211 to 212 °C

Look up and state reported melting point for CCOc1ccc(CC(CN2CC(=O)OC(=O)C2)N(CCN2CC(=O)OC(=O)C2)CC(=O)O)cc1 (stereo not drawn)
172 to 174 °C

Look up and state reported melting point for Fc1ccc(C(F)(F)C(F)(F)c2ccccc2Br)cc1
52 to 53.5 °C

Look up and state reported melting point for CCCCCc1cc2c(nc(O)n2CC2CCN(S(=O)(=O)CC)CC2)c(N)n1
222 to 225 °C

Look up and state reported melting point for CSCC(C)(C)NC(=O)c1c(I)cccc1[N+](=O)[O-]
114 to 115 °C

Look up and state reported melting point for COc1cccc2[nH]c(C(=O)OCc3ccccc3)cc12
162 to 164 °C

Look up and state reported melting point for [N-]=[N+]=NC1CC(n2cnc3c(N4CCC4)nc(N)nc32)OC1CO (stereo not drawn)
141 to 143 °C

Look up and state reported melting point for O=c1c2ccccc2ccc2ccc(SC(F)(F)F)cc12
87 to 88 °C

Look up and state reported melting point for CCOc1nc2ccccc2nc1N(C)C(=O)N1CCN(c2cc(OC)cc(OC)c2)CC1
159 to 161 °C

Look up and state reported melting point for CCCCNS(=O)(=O)CC(O)(CCCC)C1OC(C)(C)N(C(=O)OC(C)(C)C)C1CC1CCCCC1 (stereo not drawn)
138 to 140 °C

Look up and state reported melting point for Cc1ccc(OC(=O)Cl)cc1
60 to 61.5 °C

Look up and state reported melting point for CCCCNc1ccc(-c2c(N)nc(N)nc2CC)cc1[N+](=O)[O-]
252 to 254 °C

Look up and state reported melting point for C#CCn1c(=O)c2ccccc2c(=O)c2ccccc21
117 to 118 °C
